Measured Target: human aromatase (Homo sapiens)
Construct: purchased Gentest (Woburn, Mass.)
Sequence (P11511 1-503): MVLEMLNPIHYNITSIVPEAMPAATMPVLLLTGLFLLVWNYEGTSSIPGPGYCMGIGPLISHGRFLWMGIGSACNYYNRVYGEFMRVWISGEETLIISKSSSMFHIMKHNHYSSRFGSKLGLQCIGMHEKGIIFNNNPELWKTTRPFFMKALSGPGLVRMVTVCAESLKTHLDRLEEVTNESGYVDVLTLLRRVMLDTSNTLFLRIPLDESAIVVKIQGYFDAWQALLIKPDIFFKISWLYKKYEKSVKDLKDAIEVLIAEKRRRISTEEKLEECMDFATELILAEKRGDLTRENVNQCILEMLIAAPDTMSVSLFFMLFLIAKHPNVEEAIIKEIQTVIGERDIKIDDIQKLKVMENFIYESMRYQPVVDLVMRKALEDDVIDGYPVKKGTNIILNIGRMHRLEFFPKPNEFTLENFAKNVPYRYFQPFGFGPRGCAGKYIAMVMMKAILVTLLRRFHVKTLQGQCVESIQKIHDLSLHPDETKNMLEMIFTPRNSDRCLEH
Assay Method Text: human aromatase assay (Supersomes, DBF substrate, fluorescence)
Type: biochemical
Reported Conditions: 10000 nM
Here the recorded inhibition at 10 µM is given for each entry.
Quick note: give the figure in %, leave out the unit.

>  <Compound>
COc1ccc(CN(C)C(=O)C2(c3ccc(C#N)cc3Cl)CCc3cncn32)cc1 (single isomer, unassigned)

>  <Result Unit>
%

>  <inhibition at 10 µM>
98

$$$$
>  <Compound>
COc1cc(C#N)ccc1C1CCCc2cncn21 (centres unmarked)

>  <Result Unit>
%

>  <inhibition at 10 µM>
100

$$$$
>  <Compound>
N#Cc1ccc(C2(C(=O)N3CCCCC3)CCc3cncn32)c(Cl)c1 (centres unmarked)

>  <Result Unit>
%

>  <inhibition at 10 µM>
98

$$$$
>  <Compound>
COC(=O)C1(c2ccc(C#N)cc2Cl)CCc2cncn21 (centres unmarked)

>  <Result Unit>
%

>  <inhibition at 10 µM>
96

$$$$

Q: // returns reported inhibition at 10 µM for input CCCCOC(=O)C1(c2ccc(C#N)cc2OC)CCc2cncn21 (centres unmarked)
Ans: 100

====

Measured Target: aldosterone synthase (Homo sapiens, UniProt P19099)
Sequence (P19099 25-503): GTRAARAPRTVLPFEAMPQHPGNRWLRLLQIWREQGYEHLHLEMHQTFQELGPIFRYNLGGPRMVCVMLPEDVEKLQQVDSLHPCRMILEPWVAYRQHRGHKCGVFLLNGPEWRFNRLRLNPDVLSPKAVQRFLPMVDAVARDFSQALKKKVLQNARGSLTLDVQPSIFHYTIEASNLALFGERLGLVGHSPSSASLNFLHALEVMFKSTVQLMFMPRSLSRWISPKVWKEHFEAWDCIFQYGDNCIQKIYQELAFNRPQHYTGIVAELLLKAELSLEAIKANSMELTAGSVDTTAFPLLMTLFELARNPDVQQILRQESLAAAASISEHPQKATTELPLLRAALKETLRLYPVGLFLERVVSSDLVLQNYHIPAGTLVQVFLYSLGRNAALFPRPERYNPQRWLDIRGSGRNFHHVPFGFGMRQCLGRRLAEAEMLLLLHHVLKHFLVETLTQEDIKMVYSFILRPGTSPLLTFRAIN
Assay Method Text: cellular aldosterone production in NCI-H295R cells stimulated with Ang II (RIA/SPA)
Reported Conditions: human adrenocortical carcinoma NCI-H295R cells, 1 μM Ang II, 24 hr
# IC50 per entry
Your answer should be a plain number; it is taken to be in nM.

Below: 6 compounds and their reported IC50.
>  <Compound>
Cc1cc(C2CCc3cncn32)ccc1C#N (stereo not drawn)

>  <Measured Target>
aldosterone synthase (Homo sapiens, UniProt P19099)

>  <Result Unit>
nM

>  <IC50>
3

$$$$
>  <Compound>
COc1cc(C#N)ccc1C1CCc2cncn21 (stereo not drawn)

>  <Measured Target>
aldosterone synthase (Homo sapiens, UniProt P19099)

>  <Result Unit>
nM

>  <IC50>
18

$$$$
>  <Compound>
COc1cc(C#N)ccc1C1(C(=O)N(C)Cc2ccc(F)cc2)CCc2cncn21 (stereo not drawn)

>  <Measured Target>
aldosterone synthase (Homo sapiens, UniProt P19099)

>  <Result Unit>
nM

>  <IC50>
57

$$$$
>  <Compound>
C=Cc1cc(C2CCc3cncn32)ccc1C#N (stereo not drawn)

>  <Measured Target>
aldosterone synthase (Homo sapiens, UniProt P19099)

>  <Result Unit>
nM

>  <IC50>
8

$$$$
>  <Compound>
N#Cc1ccc([C@@H]2C[C@H](Cc3ccc(F)cc3)Cc3cncn32)c(F)c1 (relative stereo)

>  <Measured Target>
aldosterone synthase (Homo sapiens, UniProt P19099)

>  <Result Unit>
nM

>  <IC50>
7

$$$$
>  <Compound>
COc1cc(C2CCc3cncn32)ccc1C#N (stereo not drawn)

>  <Measured Target>
aldosterone synthase (Homo sapiens, UniProt P19099)

>  <Result Unit>
nM

>  <IC50>
5

$$$$

Q: Looking for the measured IC50 of N#Cc1ccc(C2CCc3cncn32)c(N)c1 (stereo not drawn) , can you help?
Ans: 90

Q: I am curious: what IC50 value has been reported for Fc1ccc(C2CCCc3cncn32)c(-c2ccccc2)c1 (stereo not drawn) ?
Ans: 57

Q: Would you kindly share the measured IC50 for C=Cc1cc(C#N)ccc1C1CCc2cncn21 (stereo not drawn) ?
Ans: 31

Q: Suppose we examine the compound COc1cc(C#N)ccc1C1CCCc2cncn21 (stereo not drawn) ; what IC50 value has been reported?
Ans: 270

Q: Fill in the blank: the reported IC50 of Cc1noc(C)c1-c1cc(C#N)ccc1C1CCCCc2cncn21 (stereo not drawn) is ____.
Ans: 40

Q: Requested read-out: IC50. Entry: N#Cc1ccc(C2CCCCc3cncn32)c(-c2cccnc2)c1 (stereo not drawn)
Ans: 35

====

Measured Target: human aromatase (Homo sapiens, UniProt P11511)
Construct: purchased Gentest (Woburn, Mass.)
Sequence (P11511 1-503): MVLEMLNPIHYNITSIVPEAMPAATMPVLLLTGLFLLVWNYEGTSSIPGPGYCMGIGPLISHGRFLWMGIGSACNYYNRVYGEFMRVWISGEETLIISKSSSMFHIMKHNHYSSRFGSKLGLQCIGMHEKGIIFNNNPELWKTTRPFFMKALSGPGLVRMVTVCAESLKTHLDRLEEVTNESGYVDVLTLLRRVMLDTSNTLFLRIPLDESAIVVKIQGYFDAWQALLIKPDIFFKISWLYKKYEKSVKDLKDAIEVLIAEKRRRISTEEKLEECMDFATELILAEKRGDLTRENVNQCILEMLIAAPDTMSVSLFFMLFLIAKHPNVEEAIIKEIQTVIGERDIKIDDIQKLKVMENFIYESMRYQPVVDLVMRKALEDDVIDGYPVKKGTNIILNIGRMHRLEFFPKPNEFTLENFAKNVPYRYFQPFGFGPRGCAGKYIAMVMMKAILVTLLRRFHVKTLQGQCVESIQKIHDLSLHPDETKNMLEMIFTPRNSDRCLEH
Assay Method Text: human aromatase assay (Supersomes, DBF substrate, fluorescence)
Format: biochemical
Reported Conditions: 10000 nM
Parameter Measured: inhibition at 10 µM (%)
Report the figure in % without appending any unit label.

Here are 5 compounds together with their reported answers.
>  <Compound>
C=C1CC2(CCCCc3cncn32)c2ccc(C#N)cc21 (stereo not shown)

>  <inhibition at 10 µM, %>
100

$$$$
>  <Compound>
COC(=O)C1(c2ccc(C#N)cc2OC(F)(F)F)CCc2cncn21 (stereo not shown)

>  <inhibition at 10 µM, %>
99

$$$$
>  <Compound>
C=CCC1(c2ccc(C#N)cc2Br)CCCCc2cncn21 (stereo not shown)

>  <inhibition at 10 µM, %>
97

$$$$
>  <Compound>
COc1cc(C#N)ccc1C1(C(=O)N(C)Cc2ccc(F)cc2)CCc2cncn21 (stereo not shown)

>  <inhibition at 10 µM, %>
85

$$$$
>  <Compound>
COc1ccc(C2CCc3cncn32)cc1F (stereo not shown)

>  <inhibition at 10 µM, %>
100

$$$$

Q: Request - read-out inhibition at 10 µM | tested on human aromatase (Homo sapiens, UniProt P11511) | compound Cc1cc(C#N)ccc1C1CCc2cncn21 (single isomer, unassigned)
Ans: 96

Q: Please tell me: inhibition at 10 µM of N#Cc1ccc(C2CC3(CC3)c3cncn32)c(F)c1 (stereo not shown) , system human aromatase (Homo sapiens, UniProt P11511)?
Ans: 99

Q: Form field - read-out: inhibition at 10 µM; system: human aromatase (Homo sapiens, UniProt P11511); submitted item: Fc1ccc(C2CCCCc3cncn32)c(Br)c1 (stereo not shown)
Ans: 92

Q: Find the measured inhibition at 10 µM: item CC1CCCC(c2ccc(C#N)cc2-c2ccc(F)cc2)n2cncc21 (stereo not shown) , target or system human aromatase (Homo sapiens, UniProt P11511).
Ans: 91

Q: Notebook entry, human aromatase (Homo sapiens, UniProt P11511) assay: inhibition at 10 µM of COc1cc(C#N)ccc1[C@@H]1C[C@@H](Cc2ccc(F)cc2)Cc2cncn21 (relative stereo) = ?
Ans: 100

Q: What measured inhibition at 10 µM is associated with CCC1(c2ccc(C#N)cc2Cl)CCCCc2cncn21 (stereo not shown) on human aromatase (Homo sapiens, UniProt P11511)?
Ans: 91

Q: Reported inhibition at 10 µM for human aromatase (Homo sapiens, UniProt P11511), given CC1CCCC(c2ccc(C#N)cc2-c2ccc(F)cc2)n2cncc21 (single isomer, unassigned) ?
Ans: 81

Q: Item: COc1cc(C#N)ccc1C1(C(=O)OCCOC(C)C)CCc2cncn21 (stereo not shown) Test system: human aromatase (Homo sapiens, UniProt P11511) Read-out: inhibition at 10 µM Value: ?
Ans: 96

Q: Fill in the recorded inhibition at 10 µM for this compound, with human aromatase (Homo sapiens, UniProt P11511) as test system: N#Cc1ccc(C2CCc3cncn32)c(N)c1 (stereo not shown)
Ans: 100

Q: inhibition at 10 µM of COc1cc(C2CCc3cncn32)ccc1C#N (stereo not shown) on human aromatase (Homo sapiens, UniProt P11511)?
Ans: 97
